# credit: ChEMBL document CHEMBL4689842

# Tested on: U2OS
# Assay Notes: Multiplex assay against U2OS
# Assay type: toxicity, cell-based
# Run Conditions: human, 24 h, 10 µM, compound concentration 10 uM, replicate 1
Listing of recorded Population Mitochondria Different-Phenotype (%) by entry.
Remember to quote the unit after the number.

>  <Compound>
Cc1ccc(C(=O)Nc2cccc(C(F)(F)F)c2)cc1Nc1nc(-c2cccnc2)nc2c1cnn2C

>  <Assay Target>
U2OS

>  <Assay Value>
100%

$$$$
>  <Compound>
CCOC(=O)c1c(C)[nH]c2ccc3c(c12)CN1CCc2cc(OC)ccc2C1O3 (stereo not drawn)

>  <Assay Target>
U2OS

>  <Assay Value>
100%

$$$$
>  <Compound>
C=C1/C(=C\C=C2/CCC[C@]3(C)[C@@H]([C@H](C)/C=C/[C@H](C)C(C)C)CC[C@@H]23)C[C@@H](O)C[C@@H]1O

>  <Assay Target>
U2OS

>  <Assay Value>
26%

$$$$

Fill in: Population Mitochondria Different-Phenotype (%) of S=C(NCCCc1c[nH]cn1)NCCCN(Cc1ccc(Cl)c(Cl)c1)c1ccc(Br)cn1 is ___ 100%

# lookup: Population Mitochondria Different-Phenotype (%) of Cc1cn(-c2cc(NC(=O)c3ccc(C)c(Nc4nccc(-c5cccnc5)n4)c3)cc(C(F)(F)F)c2)cn1 71%

Reported Population Mitochondria Different-Phenotype (%), compound COC(=N)c1nc2ccc3ncnc(Nc4ccc(OC)cc4F)c3c2s1 : ____ 16%

Return reported Population Mitochondria Different-Phenotype (%); argument: O=C(Cc1ccc(-c2ccc(OCCN3CCOCC3)cc2)cn1)NCc1ccccc1 46%

Please look up its Population Mitochondria Different-Phenotype (%): COc1ccc(S(=O)(=O)N(CCO)c2ccccc2CN(C)C/C=C/c2ccc(Cl)cc2)cc1.O=P(O)(O)O 13%

* * *

# System: HEK-293T
# Assay Notes: Multiplex assay against HEK293T;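 note: share of the cells with healthy nuclei that show this phenotype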
# Assay type: toxicity, cell-based
# Run Conditions: human, 24 h, 1 µM, compound concentration 1 uM, replicate 2
Observation Type: Population Tubulin-Different-Phenotype (%)
# output: bare number, implied unit %

These recorded examples may help you get a feel for the data.
>  <Smiles Structure>
COc1cccc2cc(-c3nc([C@H]4CC[C@H](C(=O)O)CC4)n4ncnc(N)c34)[nH]c12

>  <Assay Target>
HEK-293T

>  <Assay Value>
37

$$$$
>  <Smiles Structure>
S=C(NCCCc1c[nH]cn1)NCCCN(Cc1ccc(Cl)c(Cl)c1)c1ccc(Br)cn1

>  <Assay Target>
HEK-293T

>  <Assay Value>
52

$$$$
>  <Smiles Structure>
O=C(Nc1cccnn1)N1CCC(=Cc2cccc(Oc3ccc(C(F)(F)F)cn3)c2)CC1

>  <Assay Target>
HEK-293T

>  <Assay Value>
82

$$$$

Consider the record given below.
Short answer please: Population Tubulin-Different-Phenotype (%), HEK-293T, entry CNC(=O)c1ccc(Nc2nc(OC3CCCC3)c3c(-c4ccc5nc(C)oc5c4)c[nH]c3n2)c(OC)c1 78

* * *

The compounds listed here are annotated with their Population Hoechst High Intensity Objects (%).
# Test system: Fibroblast
# Assay Notes: Multiplex assay against human fibroblast
# Type: toxicity, cell-based
# Run Conditions: 24 h, 10 µM, compound concentration 10 uM, replicate 1
Use % as the unit, but write only the number.

Before answering, review these 3 worked examples.
>  <Smiles Structure>
COc1cccc2cc(-c3nc([C@H]4CC[C@H](C(=O)O)CC4)n4ncnc(N)c34)[nH]c12

>  <Assay Value>
17

$$$$
>  <Smiles Structure>
COc1ccc(S(=O)(=O)N(CCO)c2ccccc2CN(C)C/C=C/c2ccc(Cl)cc2)cc1.O=P(O)(O)O

>  <Assay Value>
14

$$$$
>  <Smiles Structure>
Cl.O=c1c2cccn2c2ccccc2n1CCCN1CCC(c2ccc(Cl)cc2)CC1

>  <Assay Value>
39

$$$$

Given the entry NC(=O)c1cccc(-c2cc(Nc3ccc(OC(F)(F)F)cc3)ncn2)c1 , report its measured Population Hoechst High Intensity Objects (%). 5

Entry COCC(=O)NC/C=C/c1ccc2ncnc(Nc3ccc(Oc4ccc(C)nc4)c(C)c3)c2c1 : reported Population Hoechst High Intensity Objects (%) = ? 14

Consider the compound shown here: Cc1cc(C)c(S(=O)(=O)N(Cc2ccc(-c3cccc(S(C)(=O)=O)c3)cc2)Cc2ccc(C(F)(F)F)o2)c(C)c1 What is its recorded Population Hoechst High Intensity Objects (%)? 42

Name the reported Population Hoechst High Intensity Objects (%) value associated with the compound O=C1NC(=O)C(c2cnc3ccccn23)=C1c1cn2c3c(cc(F)cc13)CN(C(=O)N1CCCCC1)CC2 11

Find the recorded Population Hoechst High Intensity Objects (%) belonging to COc1ccc(-c2ccc3c(N4CCOCC4)nc(N4C[C@@H](C)O[C@@H](C)C4)nc3n2)cc1CO and report it. 58
